Tested on: human SMAD7 mRNA
Test: Antisense inhibition of human SMAD7 mRNA expression in Hep3B cells by 3-10-3 cEt gapmers, 10,000 nM, electroporation (Example 2)
Format: cell-based
Details: Hep3B cells, electroporation with 10,000 nM antisense oligonucleotide, approximately 24 hours, SMAD7 mRNA by RT-PCR (RTS5062), relative to untreated control cells
Strand notation (5' to 3'): a small letter for the sugar, then the base; units joined by * are phosphorothioate-linked, units joined directly phosphodiester-linked; [ ] holds rarer units or linkages, { } end groups; capitals alone tell only the bases. k = constrained ethyl (cEt); [5mC] = 5-methylcytosine; d = 2'-deoxy (DNA)
This listing pairs substances with measured % Inhibition.
Kindly report the value followed by its unit.

Below are worked cases with known answers.
substance	readout name	measured
799337 (kG*kT*k[5mC]*dT*dT*dT*d[5mC]*d[5mC]*dG*dG*dG*dT*dG*k[5mC]*kG*kG; antisense) [compound 799337]	% Inhibition	30%
800086 (antisense kA*kG*k[5mC]*dA*dG*d[5mC]*dA*dG*d[5mC]*d[5mC]*d[5mC]*dT*dG*kT*kA*k[5mC]) [compound 800086]	% Inhibition	40%
830204 (kG*kT*kA*dT*d[5mC]*d[5mC]*dA*dT*d[5mC]*dA*dA*d[5mC]*dT*kG*k[5mC]*kT; antisense) [compound 830204]	% Inhibition	59%
790485 (k[5mC]*kA*k[5mC]*d[5mC]*dT*dG*dA*dA*d[5mC]*dA*d[5mC]*dT*dT*kT*kG*k[5mC]; antisense) [compound 790485]	% Inhibition	26%
798849 (k[5mC]*kA*kG*d[5mC]*d[5mC]*dG*dA*dT*dT*dT*dT*dG*d[5mC]*kT*k[5mC]*k[5mC]; antisense) [compound 798849]	% Inhibition	21%
830053 (kG*kG*kG*dT*dG*dA*dG*dT*dA*dA*d[5mC]*d[5mC]*dA*kG*k[5mC]*kT; antisense) [compound 830053]	% Inhibition	68%

Q) % Inhibition for 798668 (kT*k[5mC]*k[5mC]*dG*dT*dG*dG*d[5mC]*dA*dT*dG*d[5mC]*dG*k[5mC]*k[5mC]*kA; antisense) [compound 798668] ?
A) 45%

Q) % Inhibition for 799373 (antisense kA*kA*k[5mC]*d[5mC]*dG*dT*d[5mC]*dT*dT*d[5mC]*d[5mC]*d[5mC]*dA*kT*k[5mC]*kT) [compound 799373] ?
A) 56%

Q) % Inhibition for 798713 (antisense kG*k[5mC]*k[5mC]*dG*d[5mC]*d[5mC]*dA*d[5mC]*d[5mC]*dG*dG*d[5mC]*d[5mC]*k[5mC]*k[5mC]*kA) [compound 798713] ?
A) 45%

Q) % Inhibition for 799350 (kA*kT*kT*d[5mC]*d[5mC]*dT*dA*dG*d[5mC]*dG*d[5mC]*dA*d[5mC]*kT*k[5mC]*kG; antisense) [compound 799350] ?
A) 31%

Q) % Inhibition for 830151 (antisense kG*k[5mC]*k[5mC]*dA*dG*dT*dG*dG*dT*dG*dA*d[5mC]*d[5mC]*kT*k[5mC]*k[5mC]) [compound 830151] ?
A) 45%

----------
This listing pairs substances with measured % Inhibition.
Tested on: human SMAD7 mRNA
Assay: Antisense inhibition of human SMAD7 mRNA expression in Hep3B cells by 3-10-3 cEt gapmers, 10,000 nM, electroporation (Example 2)
Type: cell-based
Details: SMAD7 mRNA, Hep3B cells, electroporation with 10,000 nM antisense oligonucleotide, approximately 24 hours, primer probe set RTS5062, relative to untreated control cells
Strand notation (5' to 3'): a small letter for the sugar, then the base; units joined by * are phosphorothioate-linked, units joined directly phosphodiester-linked; [ ] holds rarer units or linkages, { } end groups; capitals alone tell only the bases. k = constrained ethyl (cEt); [5mC] = 5-methylcytosine; d = 2'-deoxy (DNA)
Write the answer as a number in %, unit excluded.

Below are worked cases with known answers.
>>> print(df.to_string())
                                  substance  measured
0  829951 (kG*k[5mC]*kT*d[5mC]*d[5mC]*dG*dG*dG*d[5mC]*dA*dG*d[5mC]*d[5mC]*kA*kG*kT; antisense) [compound 829951]        10
1  829930 (k[5mC]*kA*k[5mC]*d[5mC]*dA*dA*dT*d[5mC]*dT*dT*dG*dT*dG*kT*kT*kT; antisense) [compound 829930]         0

Q) % Inhibition for 829908 (antisense k[5mC]*kT*kA*d[5mC]*d[5mC]*dG*dG*d[5mC]*dT*dG*dT*dT*dG*kA*kA*kG) [compound 829908] ?
A) 1

Q) % Inhibition for 829803 (kA*kG*kT*dT*d[5mC]*dG*d[5mC]*dA*dG*dA*dG*dT*d[5mC]*kG*kG*k[5mC]; antisense) [compound 829803] ?
A) 35

Q) % Inhibition for 829797 (kG*kG*kT*dT*dG*dA*dT*d[5mC]*dT*dT*d[5mC]*d[5mC]*d[5mC]*kG*kT*kA; antisense) [compound 829797] ?
A) 54

Q) % Inhibition for 829814 (kG*kT*k[5mC]*dT*dG*d[5mC]*dA*dG*dT*dT*dG*dG*dT*kT*kT*kG; antisense) [compound 829814] ?
A) 94

Q) % Inhibition for 829849 (antisense kT*kG*kT*dT*dG*dT*d[5mC]*d[5mC]*dG*dA*dA*dT*dT*kG*kA*kG) [compound 829849] ?
A) 49
